Exercise: state measured inhibition for each of the compounds provided.
Experiment: HepG2 cytotoxicity, primary screen, cytotoxicity control for P. falciparum antimalarial project, cell-based, ATP luminescence (AID 2303);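 note: 0% = DMSO wells and 100% = digitonin-killed cells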
Conditions: HepG2 viability, 24-48 h, at 10 µM, stronger effect = higher value
Calls of active or inactive are those of the source.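 Rule for the calls: active = inhibition above 50%; inactive = the rest.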

Study these solved cases before continuing.
>>> experimental_value("COc1ccccc1N1CCN(Cc2cc(C(C)C)c(C)cc2O)CC1")
"7% (inactive)"
>>> experimental_value("CN(C)CCCN(C)C(=O)c1cc2cc(-c3ccccc3)ccc2n1S(=O)(=O)c1ccccc1")
"29% (inactive)"

Record inhibition for all entries; do not skip any.
1. CCOc1ccc(-c2nc3ccc(-c4nc5ccc(N6CCN(C)CC6)cc5[nH]4)cc3[nH]2)cc1
2. O=C(Nc1cccc(CN2CCN(Cc3ccc(O)cc3)CC2)c1)c1ccc(Cl)c(Cl)c1
3. FC(F)c1nc2ccccc2n1-c1nc(N2CCOCC2)nc(N2CCOCC2)n1
4. O=C(/C=C/c1ccc(Cl)c(Cl)c1)NCCCCCN1CC[C@H](NC(=O)c2ccc3c(c2)OCO3)C1
5. c1ccc(Oc2cccc(Nc3ccnc4ccccc34)c2)cc1
6. CC(C)(CNC(=O)[C@@H]1CCCN(Cc2ccc(Cl)cc2)C1)c1nc(-c2ccc(Cl)c(O)c2)c(-c2ccncc2)[nH]1

1: 16% (inactive); 2: 30% (inactive); 3: 47% (inactive); 4: 32% (inactive); 5: 48% (inactive); 6: 66% (active)

Record inhibition for all entries; do not skip any.
1. Cc1ccc(CN2CCN(Cc3cccc(NC(=O)c4cccs4)c3)CC2)cc1C
2. Clc1ccc2c(NN=Cc3cccnc3)ccnc2c1

1. 41% (inactive)
2. -9% (inactive)

Record inhibition for all entries; do not skip any.
1. CCc1cn2c3c(cc(C(=O)N[C@@H](Cc4cc(F)cc(F)c4)[C@H](O)CNC4CC4)cc13)N(C)S(=O)(=O)CC2
2. O=S(=O)(NCCN1CCCC1)c1cccc(-c2ccccc2CNC2Cc3ccccc3C2)c1
3. CCCc1cc(Cc2cnc(N)nc2N)cc(CCC)c1OC

3% (inactive)
35% (inactive)
18% (inactive)

Record inhibition for all entries; do not skip any.
1. N#Cc1cccc(NC(=O)Nc2ccc(CC(=O)N3CCc4cc(Cl)c(N5CCN(C/C=C/c6ccccc6)CC5)cc43)cc2)c1
2. CC(C)C1CCc2nc(N)nc(N)c2C1 (stereo not given)
3. COc1ccc(CNCc2ccccc2)cc1-c1ccc(S(=O)(=O)NCCN2CCCC2)cc1
4. Cc1cccc2[nH]c(-c3ccc(-c4cccc(NC(=O)NCc5cccc(F)c5)c4)cc3)nc12
5. CC(=O)Nc1ccc(OCCN(Cc2ccccc2C(F)(F)F)c2ccc(C#N)c(C(F)(F)F)c2)cc1

1. -4% (inactive)
2. 70% (active)
3. 38% (inactive)
4. 27% (inactive)
5. 8% (inactive)

Record inhibition for all entries; do not skip any.
1. CCCCCCCc1ccc(-c2c(C)[nH]c(C)c(Cl)c2=O)cn1
2. COc1ccc(CN(C)CCCSc2ccc(NC(=O)c3cccc4c(=O)cc(-c5ccccc5)[nH]c34)cc2)cc1OC

["-4% (inactive)", "15% (inactive)"]

---

Exercise: state measured inclusion score for each of the molecules provided.
Test: reducers of polyQ inclusions in PC12 cells, cell-based, NGF-treated PC12, GFPQ80 (AID 1614);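 note: lower means fewer inclusions and 0 means no inclusions at all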
Conditions: PC12 NGF-treated GFP-polyQ80 inclusion reduction
Give bare numbers.

>>> experimental_value("NC(=O)c1ccc[n+]([C@@H]2O[C@H](COP(=O)([O-])OP(=O)(O)OC[C@H]3O[C@@H](n4cnc5c(N)ncnc54)[C@H](OP(=O)(O)O)[C@@H]3O)[C@@H](O)[C@H]2O)c1")
2
>>> experimental_value("O=c1cc(-c2ccccc2)oc2c(O)c(O)ccc12")
1.5
>>> experimental_value("COc1cc2ccc(=O)oc2cc1O")
2
>>> experimental_value("CC(C(=O)O)c1ccc(N2Cc3ccccc3C2=O)cc1 (configuration not stated)")
2.5
>>> experimental_value("CN(C)c1nc(N(C)C)nc(N(C)C)n1")
2

Record inclusion score for all entries; do not skip any.
1. Cn1c(=O)[nH]c2ncn(C)c2c1=O
2. COc1cc(OC)c2ccc(=O)oc2c1
3. COc1ccc2cc([C@H](C)C(=O)O)ccc2c1
4. CC(=O)N=c1sc(S(N)(=O)=O)nn1C
5. O=C(O)c1cn(C2CC2)c2cc(N3CCNCC3)c(F)cc2c1=O
6. O=c1c(-c2ccc(O)cc2)coc2cc(O)ccc12
7. C1N2CN3CN1CN(C2)C3

[2, 2, 2, 2, 2, 2, 2]

Value source: PubChem BioAssay
